- measured_target: T1, ANXA1
- T1 construct: coated protein in the ELISA; also called ANXA1-His (R&D Systems)
- T1 chain: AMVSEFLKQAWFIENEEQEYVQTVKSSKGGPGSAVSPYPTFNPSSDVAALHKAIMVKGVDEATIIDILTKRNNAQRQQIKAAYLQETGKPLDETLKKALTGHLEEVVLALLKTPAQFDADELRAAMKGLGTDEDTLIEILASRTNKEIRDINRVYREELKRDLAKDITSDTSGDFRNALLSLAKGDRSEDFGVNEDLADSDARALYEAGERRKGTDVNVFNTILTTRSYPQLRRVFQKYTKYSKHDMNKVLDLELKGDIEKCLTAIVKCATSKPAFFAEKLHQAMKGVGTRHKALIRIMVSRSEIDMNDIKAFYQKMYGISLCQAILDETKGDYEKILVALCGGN
- assay_explanation: ELISA on coated ANXA1-His, 150 ng IgG1; None 0.098
attribute_measured: ELISA Absorbance (405 nm-570 nm)
Enter the number alone.

The following binders have reported results that may help.
binder	reported
HW-28 chimeric rabbit-human IgG1 LA/LA/PG (antibody, V domains shown, Fc-silenced (L234A/L235A/P329G) IgG1, lambda; Alexa Fluor 647-labeled in single-step flow cytometry; Cluster C-45) VH: QKQLVESGGRLVTPGTPLTLTCTASGFSLSSNAMSWVRQAPGEGLQWIGTISSGGSTYYASWAKGRFTISKTSTTVTLKMTSLTTEDTATYFCARGADLHRLWGPGTLVTVSS VL: SFVLTQPASVQVNLGQTVSLTCTGKPLSRSFASWYQQKPGQAPVLVIYRDTSRPSGVPDRFSGSSSGNTATLTISGAQAGDEADYYCATSDGSGSSYQYVFGGGTQLTVTG	0.153
HW-17 chimeric rabbit-human IgG1 LA/LA/PG (antibody, V domains shown, Fc-silenced (L234A/L235A/P329G) IgG1, lambda; Alexa Fluor 647-labeled in single-step flow cytometry; Cluster C-1) VH: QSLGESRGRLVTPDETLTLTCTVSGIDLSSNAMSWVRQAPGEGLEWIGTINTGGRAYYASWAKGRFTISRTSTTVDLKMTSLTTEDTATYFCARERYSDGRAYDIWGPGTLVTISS VL: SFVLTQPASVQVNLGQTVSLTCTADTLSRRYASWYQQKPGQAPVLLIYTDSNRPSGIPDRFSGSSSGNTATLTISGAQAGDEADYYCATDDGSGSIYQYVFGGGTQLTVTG	0.073
HW-16 chimeric rabbit-human IgG1 LA/LA/PG (antibody, V domains shown, Fc-silenced (L234A/L235A/P329G) IgG1, kappa; Alexa Fluor 647-labeled in single-step flow cytometry; Cluster C-45) VH: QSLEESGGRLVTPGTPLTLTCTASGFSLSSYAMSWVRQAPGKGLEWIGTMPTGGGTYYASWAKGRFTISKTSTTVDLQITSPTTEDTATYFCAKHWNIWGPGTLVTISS VL: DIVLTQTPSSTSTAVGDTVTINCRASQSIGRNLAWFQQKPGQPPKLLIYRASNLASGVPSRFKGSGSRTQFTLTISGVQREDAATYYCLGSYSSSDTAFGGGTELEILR	0.111
HW-25 chimeric rabbit-human IgG1 LA/LA/PG (antibody, V domains shown, Fc-silenced (L234A/L235A/P329G) IgG1, lambda; Alexa Fluor 647-labeled in single-step flow cytometry; Cluster C-1) VH: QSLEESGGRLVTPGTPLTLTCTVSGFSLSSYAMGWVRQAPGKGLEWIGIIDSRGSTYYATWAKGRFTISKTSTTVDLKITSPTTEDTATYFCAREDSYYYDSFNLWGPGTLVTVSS VL: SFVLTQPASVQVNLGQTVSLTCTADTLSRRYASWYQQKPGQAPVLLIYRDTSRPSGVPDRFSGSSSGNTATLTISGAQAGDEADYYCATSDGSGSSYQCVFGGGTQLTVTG	0.065

Form field ELISA Absorbance (405 nm-570 nm), entry HW-101 chimeric rabbit-human IgG1 LA/LA/PG (antibody, V domains shown, Fc-silenced (L234A/L235A/P329G) IgG1, lambda; Alexa Fluor 647-labeled in single-step flow cytometry; Cluster C-97) VH: QEQLVESGGRLVTPGTPLTLTCKASGFSLGKYDMSWVRQAPGKGLEWIGTIYAGSGSTWYASWAKGRFTISKTSTTVDLKMTSLTTEDTATYFCARDFLGVNSIWGPGTLVTISS VL: SFVLTQPASVQVNLGQTVSLTCTADTLSRSYASWYQQKPDQAPVLLIHRDTSRPSGVPDRFSGSNSGNTATLTISGAQAGDEADYYCATSDGSGSNFHFVFGGGTQLTVTG : 0.066

Data provenance is patent US20260049134A1.
